test system: Escherichia coli TOP10; assay: shrunken log2 fold change of peptide-encoding DNA abundance (4.5 h post-induction vs induction); higher = less antimicrobial activity (less host growth inhibition); conditions: time post-induction: 4.5 h; library: site-saturation at positions 5, 18, 19, 20;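 further: peptides expressed intracellularly from a pBAD plasmid library in pooled LB shake-flask culture, induced with 0.3% L-arabinose, DNA abundance read by NGS, three biological replicates, DESeq2 with apeglm shrinkage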
Field: shrunken log2 fold change. Provide a value for each of the sequences that follow.
Numbers only.

Input: Give the reported shrunken log2 fold change for this sequence. RRIRERPPRLPRPRPRPGRFPRP
Output: 0.0216

Input: Return shrunken log2 fold change (reported value) for this sequence: RRIRARPPRLPRPRPRPQKSPRP
Output: 0.0945

Input: Report shrunken log2 fold change, nothing else, for this sequence: RRIRPRPPRLPRPRPRPFMYPRP
Output: -0.0369

Input: For RRIRPRPPRLPRPRPRPFINPRP , write its shrunken log2 fold change.
Output: -0.382

Could you report shrunken log2 fold change for every entry in the following list?
1. RRIRRRPPRLPRPRPRPWKGPRP
2. RRIRARPPRLPRPRPRPSVTPRP
3. RRIRQRPPRLPRPRPRPYNDPRP
4. RRIRVRPPRLPRPRPRPVILPRP

Output:
1. -0.209
2. 0.0595
3. 0.00408
4. -0.248

List shrunken log2 fold change for every entry below, keeping the order given.
1. RRIRGRPPRLPRPRPRPITRPRP
2. RRIRNRPPRLPRPRPRPIPNPRP
3. RRIRMRPPRLPRPRPRPSCCPRP
4. RRIRMRPPRLPRPRPRPVYRPRP

Output:
1: 0.133; 2: -0.428; 3: 0.291; 4: -0.174

# return shrunken log2 fold change for each item in the list
1. RRIRKRPPRLPRPRPRPRDQPRP
2. RRIRIRPPRLPRPRPRPYIVPRP
3. RRIRQRPPRLPRPRPRPLGHPRP
4. RRIRVRPPRLPRPRPRPRSWPRP
5. RRIRYRPPRLPRPRPRPIRPPRP

Output:
[0.000671, -0.0153, 0.0124, 0.325, -0.129]

Hi, could you look up shrunken log2 fold change for each item in my list?
1. RRIRLRPPRLPRPRPRPRKLPRP
2. RRIRGRPPRLPRPRPRPRSCPRP
3. RRIRIRPPRLPRPRPRPPKYPRP

Output:
-0.0264
0.759
-0.886

Report shrunken log2 fold change for every entry below.
1. RRIRLRPPRLPRPRPRPMYWPRP
2. RRIRNRPPRLPRPRPRPYACPRP
3. RRIRIRPPRLPRPRPRPYPSPRP
4. RRIRCRPPRLPRPRPRPEAWPRP

Output:
1. -0.115
2. -0.167
3. -0.00978
4. 0.976

Below is a list of sequences. For each, state its recorded shrunken log2 fold change.
1. RRIRSRPPRLPRPRPRPGENPRP
2. RRIRDRPPRLPRPRPRPESTPRP
3. RRIRTRPPRLPRPRPRPGEWPRP
4. RRIRCRPPRLPRPRPRPGCSPRP
5. RRIRCRPPRLPRPRPRPIVKPRP

Output:
1: 0.894; 2: -0.0182; 3: 0.0179; 4: -0.182; 5: 0.0118

Batch of 2 sequences: report shrunken log2 fold change for each.
1. RRIRHRPPRLPRPRPRPIMEPRP
2. RRIRGRPPRLPRPRPRPQKMPRP

Output:
1. -0.545
2. 0.331

I need shrunken log2 fold change for every entry listed below, if you could help.
1. RRIRSRPPRLPRPRPRPQHWPRP
2. RRIRVRPPRLPRPRPRPFMWPRP
3. RRIRWRPPRLPRPRPRPYKYPRP
4. RRIRNRPPRLPRPRPRPPDIPRP
5. RRIRHRPPRLPRPRPRPINWPRP
6. RRIRDRPPRLPRPRPRPVPDPRP

Output:
1: 0.015; 2: -0.327; 3: -0.977; 4: -0.341; 5: -0.35; 6: -0.0933
